B1: Gamma-crystallin C, residues 4 to 79; numbered along this chain, P07315 (parent)
chain: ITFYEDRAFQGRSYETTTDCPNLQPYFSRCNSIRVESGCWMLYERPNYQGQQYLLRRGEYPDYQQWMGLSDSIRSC

# Variants of: B1
# Measurement protocol: abundance fitness (aPCA) (normalised: wild type 0, dead -1); higher = more abundant; growth selection in yeast, the domain comes from the species named
# Condition summary: Homo sapiens
# abundance fitness per record follows
Answer field: number only, no words.

1) A8P -0.312
2) V35Q -0.854
3) F3M -0.071
4) D6F -0.204

Ask: Give the measured abundance fitness of `R12Y` .
Result: -0.022

Ask: Give the measured abundance fitness of `C39Y` .
Result: -0.014

Ask: Give the measured abundance fitness of `P61I` .
Result: -0.129

Ask: Give the measured abundance fitness of `M67Q` .
Result: -0.042

Ask: Give the measured abundance fitness of `F3K` .
Result: -0.991

Ask: Give the measured abundance fitness of `T2I` .
Result: 0.093
